# MEASUREMENT_PARAMETERS: 25.0 °C
REPORTED_ENDPOINT: log10 OH rate constant (cm³/molecule/s)
Enter the number alone.

Reference set (6 entries):
[Q] Sample C=Cc1ccccc1 — what was its log10 OH rate constant (cm³/molecule/s)?
[A] -10.2

[Q] # repeat for CCC=O
[A] -10.7

[Q] # repeat for CCOCCCO
[A] -10.7

[Q] Also check CC1CO1 (stereo not given)
[A] -12.3

[Q] Also C1OCOCO1 ?
[A] -11.2

[Q] How about this compound: Cc1ccoc1
[A] -10

Next up:
[Q] So what does the record say about log10 OH rate constant (cm³/molecule/s) for CC(C)(C)C ?
[A] -12.1

----------
# MEASUREMENT_PARAMETERS: 25.0 °C
Each entry below lists one item and its recorded log10 OH rate constant (cm³/molecule/s) value.
// print number alone

[Q] Endpoint output: log10 OH rate constant (cm³/molecule/s) of CC(=O)O . Value?
[A] -12.1

[Q] How about this molecule: C1COCOC1
[A] -11

[Q] Also CC(=O)OCC(C)C , if possible.
[A] -11.3

[Q] Same read-out for CCC(C)CC ?
[A] -11.2

[Q] Then C=CC(=C)C ?
[A] -10

Moving on to another molecule below.
[Q] Fill blank: measured log10 OH rate constant (cm³/molecule/s) of the molecule c1ccc(-c2ccccc2)cc1 is ____.
[A] -11.1

----------
Reported log10 OH rate constant (cm³/molecule/s) values for the following molecules.
# MEASUREMENT_PARAMETERS: 25.0 °C
Provide a numeric answer; units are not to be included.

Before answering, review these 5 worked examples.
[Q] Find the recorded log10 OH rate constant (cm³/molecule/s) belonging to C1COC1 and report it.
[A] -11

[Q] Next entry: CCc1ccc(C)cc1
[A] -10.9

[Q] Thanks! And FCCF ?
[A] -13

[Q] Next molecule: CC(C)=C=O
[A] -9.97

[Q] Another molecule: CCOCCOC(C)=O
[A] -10.9

Others:
[Q] What value of log10 OH rate constant (cm³/molecule/s) has been reported for the following molecule? C1CC2CCC1CC2
[A] -10.8

[Q] What do we get for C=C=CCC ?
[A] -10.4

[Q] Now this one: CC(=O)C(C)=O
[A] -12.6

[Q] Next: Cc1ccc2ccccc2c1
[A] -10.3

[Q] And the next one, C1=Cc2cccc3cccc1c23 ?
[A] -9.96

[Q] Similarly, Oc1ccc(Cl)cc1Cl ?
[A] -12

[Q] Another molecule to look at: CC(=O)C=O
[A] -10.8

[Q] Query c1ccsc1 next
[A] -11

----------
# MEASUREMENT_PARAMETERS: 25.0 °C
Catalogue of molecules with associated log10 OH rate constant (cm³/molecule/s)
Give your answer as a number; write no unit.

[Q] Request the reported log10 OH rate constant (cm³/molecule/s) associated with O=Cc1ccccc1
[A] -10.9

[Q] Then C=C1CCC2CC1C2(C)C (stereo not drawn) ?
[A] -10.1

[Q] How about C=CCO ?
[A] -10.6

Next:
[Q] Suppose we examine the molecule c1cocn1 ; what log10 OH rate constant (cm³/molecule/s) value has been reported?
[A] -11

[Q] Follow-up item: O=CCO
[A] -11

[Q] Entry CCc1cccc(C)c1 please
[A] -10.7

[Q] Item: CC(C)COCC(C)C
[A] -10.6

[Q] Thanks! And C=CCCC=C ?
[A] -10.2

Source of measurements: the OPERA property sets (Mansouri et al. 2018)
